Data origin, for the record: patent US9266911B2

Assay Name: Water-solubility
Type: physicochemical
Conditions: water
Readout Name: solubility (µg/mL)
Reply numerically in µg/mL, unit not repeated.

Prompt: What measured solubility goes with `CCc1c2c(nc3ccc(OC(=O)N4CCC(N5CCCCC5)CC4)cc13)-c1cc3c(c(=O)n1C2)COC(=O)[C@]3(O)CC` ?
Completion: 1000
